- target: human recombinant renin (Homo sapiens, UniProt P00797)
- test method notes: Inhibition of human recombinant renin (modified Cayman renin inhibitor screening assay, fluorescence)
Structures can show the parent of a compound that is named as a salt.
property measured: IC50 (nM)

These recorded examples may help you get a feel for the data.
{"compound": "COc1ccccc1CN(C(=O)C1CNCC[C@@H]1NC(=O)c1ccc(OCCOc2c(Cl)cc(C)cc2Cl)cc1)C1CC1.Cl (stereo partly shown) [Example 31, hydrochloride]", "measured": 37}
{"compound": "O=C(NC1CCNCC1C(=O)N(Cc1cccc(Cl)c1Cl)C1CC1)c1ccc(OCCOc2c(Cl)cccc2Cl)cc1 (stereo not shown) [Example 1]", "measured": 16}
{"compound": "COc1cccc(CN(C(=O)C2CNCC[C@@H]2NC(=O)c2ccc(OCCOc3c(Cl)cc(C)cc3Cl)cc2)C2CC2)c1C (stereo partly shown) [Example 37, hydrochloride]", "measured": 17}

a = Cc1cc(Cl)c(OCCOc2ccc(C(=O)N[C@H]3CCNCC3C(=O)N(Cc3cccc(C)c3C)C3CC3)cc2)c(Cl)c1 (stereo partly shown) [Example 20, hydrochloride]
b = Cc1cc(Cl)c(OCCOc2ccc(C(=O)NC3CCNCC3C(=O)N(Cc3ccc4ccccc4c3)C3CC3)cc2)c(Cl)c1 (stereo not shown) [Example 12]
c = Cc1cc(Cl)c(OCCOc2ccc(C(=O)NC3CCNCC3C(=O)N(Cc3ccc(Cl)cc3Cl)C3CC3)cc2)c(Cl)c1 (mixture of isomers) [Example 5]
d = Cc1cc(Cl)c(OCCOc2ccc(C(=O)N[C@H]3CCNCC3C(=O)N(Cc3cccc(C)c3C)C3CC3)cc2)c(Cl)c1 (stereo partly shown) [Example 26]
Please rank these compounds by IC50 in descending order. Output spec: labels arranged per the requested ranking.
b, c, d, a
(b: 64 nM, c: 39 nM, d: 21 nM, a: 13 nM)

---

- target: human recombinant renin (Homo sapiens, UniProt P00797)
- Construct: purchased Cayman 10006270
- Sequence (P00797 67-406): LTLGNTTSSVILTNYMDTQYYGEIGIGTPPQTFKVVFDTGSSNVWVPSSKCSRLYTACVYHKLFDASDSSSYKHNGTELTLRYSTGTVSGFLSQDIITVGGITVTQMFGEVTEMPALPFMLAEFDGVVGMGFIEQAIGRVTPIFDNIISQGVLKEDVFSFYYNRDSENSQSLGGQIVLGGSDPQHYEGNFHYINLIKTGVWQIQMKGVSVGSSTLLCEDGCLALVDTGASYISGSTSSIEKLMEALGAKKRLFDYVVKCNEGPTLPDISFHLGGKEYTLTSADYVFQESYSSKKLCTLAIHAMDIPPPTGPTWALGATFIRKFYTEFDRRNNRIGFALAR
- test method notes: Inhibition of human recombinant renin (modified Cayman renin inhibitor screening assay, fluorescence)
- Type: biochemical
- cond: 0.1 μM compound; 37° C., 30 mins; human recombinant renin; read-out: Renin inhibition (percent inhibition of renin activity) at 0.1 μM
Where a name gives a salt, the structure may show the parent alone.
property measured: inhibition at 0.1 µM (%)

These recorded examples may help you get a feel for the data.
{"compound": "Cc1cc(Cl)c(OCCOc2ccc(C(=O)NC3CCNCC3C(=O)N(Cc3ccc4ccccc4c3)C3CC3)cc2)c(Cl)c1 (stereo not shown) [Example 12]", "target": "human recombinant renin (Homo sapiens, UniProt P00797)", "property measured": "inhibition at 0.1 µM", "measured": 89}
{"compound": "Cc1cc(C)cc(CN(C(=O)C2CNCCC2NC(=O)c2ccc(OCCOc3c(Cl)cccc3Cl)cc2)C2CC2)c1 (stereo not shown) [Example 4]", "target": "human recombinant renin (Homo sapiens, UniProt P00797)", "property measured": "inhibition at 0.1 µM", "measured": 47}
{"compound": "O=C(NC1CCNCC1C(=O)N(Cc1cccc(Cl)c1Cl)C1CC1)c1ccc(OCCOc2c(Cl)cccc2Cl)cc1 (stereo not shown) [Example 1]", "target": "human recombinant renin (Homo sapiens, UniProt P00797)", "property measured": "inhibition at 0.1 µM", "measured": 100}

A = COc1ccccc1COCCCOc1ccc(C(=O)N[C@H]2CCNCC2C(=O)N(Cc2ccccc2OC)C2CC2)cc1 (stereo partly shown) [Example 33, hydrochloride]
B = Cc1cc(Cl)c(OCCOc2ccc(C(=O)N[C@H]3CCNCC3C(=O)N(Cc3cccc(C)c3C)C3CC3)cc2)c(Cl)c1 (stereo partly shown) [Example 20, hydrochloride]
Hi, I'm comparing two records. Which one has the lower inhibition at 0.1 µM, A or B ? Choose, then provide that item's label.
A
(A: 17%, B: 91%)

a = Cc1cc(Cl)c(OCCOc2ccc(C(=O)N[C@H]3CCNCC3C(=O)N(Cc3ccccc3F)C3CC3)cc2)c(Cl)c1 (stereo partly shown) [Example 29, hydrochloride]
b = Cc1cc(Cl)c(OCCOc2ccc(C(=O)N[C@H]3CCNCC3C(=O)N(Cc3cccc(Cl)c3Cl)C3CC3)cc2)c(Cl)c1 (stereo partly shown) [Example 35, hydrochloride]
Hi, I'm comparing two records. Which one has the lower inhibition at 0.1 µM, a or b ? Choose, then provide that item's label.
a

---

- target: human recombinant renin (Homo sapiens)
- Construct: purchased Cayman 10006270
- Sequence (P00797 67-406): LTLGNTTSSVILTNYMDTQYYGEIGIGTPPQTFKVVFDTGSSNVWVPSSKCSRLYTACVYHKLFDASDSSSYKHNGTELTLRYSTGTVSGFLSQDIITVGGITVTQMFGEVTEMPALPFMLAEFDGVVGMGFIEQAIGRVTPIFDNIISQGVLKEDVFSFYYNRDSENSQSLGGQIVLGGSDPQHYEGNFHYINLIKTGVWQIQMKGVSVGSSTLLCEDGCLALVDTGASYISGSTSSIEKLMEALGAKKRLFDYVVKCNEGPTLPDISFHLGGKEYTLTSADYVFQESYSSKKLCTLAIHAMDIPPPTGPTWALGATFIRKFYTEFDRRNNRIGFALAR
- test method notes: Inhibition of human recombinant renin (modified Cayman renin inhibitor screening assay, fluorescence)
- Assay type: biochemical
- cond: 0.1 μM compound; 37° C., 30 mins; human recombinant renin; read-out: Renin inhibition (percent inhibition of renin activity) at 0.1 μM
Structures can show the parent of a compound that is named as a salt.
property measured: inhibition at 0.1 µM (%)

{"compound": "Cc1cc(C)cc(CN(C(=O)C2CNCCC2NC(=O)c2ccc(OCCOc3c(Cl)cc(C)cc3Cl)cc2)C2CC2)c1 (centres unmarked)", "inhibition at 0.1 µM / %": 44}
{"compound": "COCCCOc1cccc(CN(C(=O)C2CNCCC2NC(=O)c2ccc(OCCOc3c(Cl)cccc3Cl)cc2)C2CC2)c1 (centres unmarked)", "inhibition at 0.1 µM / %": 43}
{"compound": "COc1ccccc1COCCOc1ccc(C(=O)N[C@H]2CCNCC2C(=O)N(Cc2cccc(C)c2C)C2CC2)cc1 (some centres unmarked)", "inhibition at 0.1 µM / %": 52}
{"compound": "COc1ccc(CN(C(=O)C2CNCCC2NC(=O)c2ccc(OCCOc3c(Cl)cc(C)cc3Cl)cc2)C2CC2)cc1OC (centres unmarked)", "inhibition at 0.1 µM / %": 41}
{"compound": "Cc1cc(Cl)c(OCCOc2ccc(C(=O)N[C@@H]3CCNCC3C(=O)N(Cc3ccc(C)c(C)c3)C3CC3)cc2)c(Cl)c1 (some centres unmarked) [Example 22, hydrochloride]", "inhibition at 0.1 µM / %": 40}

---

- target: human recombinant renin (Homo sapiens, UniProt P00797)
- Construct: purchased Cayman 10006270
- Sequence (P00797 67-406): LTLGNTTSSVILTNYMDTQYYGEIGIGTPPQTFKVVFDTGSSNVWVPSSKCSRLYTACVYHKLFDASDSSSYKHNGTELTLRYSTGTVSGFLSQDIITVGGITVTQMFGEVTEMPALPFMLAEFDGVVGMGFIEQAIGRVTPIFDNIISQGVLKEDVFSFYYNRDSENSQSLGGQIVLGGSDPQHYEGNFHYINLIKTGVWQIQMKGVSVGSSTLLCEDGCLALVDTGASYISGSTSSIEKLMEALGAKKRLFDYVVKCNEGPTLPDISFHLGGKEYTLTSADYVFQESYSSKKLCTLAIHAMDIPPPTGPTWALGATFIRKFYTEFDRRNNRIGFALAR
- test method notes: Inhibition of human recombinant renin (modified Cayman renin inhibitor screening assay, fluorescence)
- Type: biochemical
- cond: 0.01 μM compound; 37° C., 30 mins; human recombinant renin; read-out: Renin inhibition (percent inhibition of renin activity) at 0.01 μM
Where a name gives a salt, the structure may show the parent alone.
property measured: inhibition at 0.01 µM (%)

{"compound": "Cc1cc(Cl)c(OCCOc2ccc(C(=O)N[C@@H]3CCNCC3C(=O)N(Cc3cccc(C)c3C)C3CC3)cc2)c(Cl)c1 (stereo partly shown) [Example 24, hydrochloride]", "inhibition at 0.01 µM, %": 10}
{"compound": "Cc1cc(Cl)c(OCCOc2ccc(C(=O)NC3CCNCC3C(=O)N(Cc3ccc4ccccc4c3)C3CC3)cc2)c(Cl)c1 (stereo not shown)", "inhibition at 0.01 µM, %": 43}
{"compound": "COc1cccc(CN(C(=O)C2CNCC[C@@H]2NC(=O)c2ccc(OCCOc3c(Cl)cc(C)cc3Cl)cc2)C2CC2)c1OC.Cl (stereo partly shown) [Example 14, hydrochloride]", "inhibition at 0.01 µM, %": 19}
{"compound": "Cc1cc(Cl)c(OCCOc2ccc(C(=O)NC3CCNCC3C(=O)N(Cc3ccc(Cl)cc3Cl)C3CC3)cc2)c(Cl)c1 (mixture of isomers)", "inhibition at 0.01 µM, %": 42}
{"compound": "COc1ccccc1CN(C(=O)C1CNCC[C@@H]1NC(=O)c1ccc(OCCOc2c(Cl)cc(C)cc2Cl)cc1)C1CC1.Cl (stereo partly shown) [Example 31, hydrochloride]", "inhibition at 0.01 µM, %": 22}
{"compound": "COc1ccccc1COCCCOc1ccc(C(=O)N[C@H]2CCNCC2C(=O)N(Cc2cccc(C)c2C)C2CC2)cc1 (stereo partly shown) [Example 28, hydrochloride]", "inhibition at 0.01 µM, %": 60}
{"compound": "COc1ccccc1COCCOc1ccc(C(=O)N[C@H]2CCNCC2C(=O)N(Cc2cccc(C)c2C)C2CC2)cc1 (stereo partly shown)", "inhibition at 0.01 µM, %": 11}
{"compound": "Cc1cc(Cl)c(OCCOc2ccc(C(=O)N[C@H]3CCNCC3C(=O)N(Cc3ccccc3F)C3CC3)cc2)c(Cl)c1 (stereo partly shown) [Example 29, hydrochloride]", "inhibition at 0.01 µM, %": 11}
{"compound": "O=C(NC1CCNCC1C(=O)N(Cc1cccc(Cl)c1Cl)C1CC1)c1ccc(OCCOc2c(Cl)cccc2Cl)cc1 (stereo not shown)", "inhibition at 0.01 µM, %": 88}
{"compound": "Cc1cc(Cl)c(OCCOc2ccc(C(=O)N[C@H]3CCNCC3C(=O)N(Cc3cccc(C)c3C)C3CC3)cc2)c(Cl)c1 (stereo partly shown) [Example 20, hydrochloride]", "inhibition at 0.01 µM, %": 48}

1 = Cc1cc(Cl)c(OCCOc2ccc(C(=O)N[C@H]3CCNCC3C(=O)N(Cc3cccc(Cl)c3Cl)C3CC3)cc2)c(Cl)c1 (stereo partly shown) [Example 35, hydrochloride]
2 = COc1cccc(CN(C(=O)C2CNCC[C@@H]2NC(=O)c2ccc(OCCOc3c(Cl)cc(C)cc3Cl)cc2)C2CC2)c1C (stereo partly shown) [Example 37, hydrochloride]
Hi, I'm comparing two records. Which one has the lower inhibition at 0.01 µM, 1 or 2 ? Choose, then provide that item's label.
2

All values here come from patent US20120115907A1.
